Test system: Artemia salina
assay_details: Action against Artemia salina
Type: in vivo
Set-up: key: 0: nauplii not affected; 1: slight change; 1-2: nauplii affected; 2: nauplii severely affected; 2-3: almost all nauplii dead; 3: all nauplii dead
condition_label: 1 mg/liter, 24 hours
Hi there, I'd appreciate the recorded Action against Artemia salina for every entry that follows.
Returns: the value as a bare number; no unit string appended.

Exam item: Output Action against Artemia salina of CCCCCCCCCCCCCC[P+](CCCC)(CCCC)CCCC.CCCCCCCCCCCCCC[P+](CCCC)(CCCC)CCCC.[CH3][Sn-2]([CH3])([Cl])([Cl])([Cl])[Cl] [Example 21]
Marked response: 3

Exam item: Output Action against Artemia salina of CCCCCCCCCCCCCC[P+](CCCC)(CCCC)CCCC.CCCCCCCCCCCCCC[P+](CCCC)(CCCC)CCCC.[CH3][Sn-2]([Cl])([Cl])([Cl])([Cl])[Cl] [Example 23]
Marked response: 3

Exam item: Output Action against Artemia salina of CCCCCCCCCCCCCC[P+](CCCC)(CCCC)CCCC.[CH3][Sn-]([Cl])([Cl])([Cl])[Cl] [Example 22]
Marked response: 3

* * *

Test system: Artemia salina
assay_details: Action against Artemia salina
Type: in vivo
Parameters: key: 0: nauplii not affected; 1: slight change; 1-2: nauplii affected; 2: nauplii severely affected; 2-3: almost all nauplii dead; 3: all nauplii dead
condition_label: 0.25 mg/liter, 24 hours
measured_property: Action against Artemia salina

Exam item: Output Action against Artemia salina of CCCCCCCCCCCCCC[P+](CCCC)(CCCC)CCCC.[CH3][Sn-]([CH3])([Cl])([Cl])[Cl] [Example 20]
Marked response: 1-2

Exam item: Output Action against Artemia salina of CCCCCCCCCCCCCC[P+](CCCC)(CCCC)CCCC.CCCCCCCCCCCCCC[P+](CCCC)(CCCC)CCCC.[CH3][Sn-2]([CH3])([Cl])([Cl])([Cl])[Cl] [Example 21]
Marked response: 3

Exam item: Output Action against Artemia salina of CCCCCCCCCCCCCC[P+](CCCC)(CCCC)CCCC.[CH3][Sn-]([Cl])([Cl])([Cl])[Cl] [Example 22]
Marked response: 1-2

Exam item: Output Action against Artemia salina of CCCCCCCCCCCCCC[P+](CCCC)(CCCC)CCCC.CCCCCCCCCCCCCC[P+](CCCC)(CCCC)CCCC.[CH3][Sn-2]([Cl])([Cl])([Cl])([Cl])[Cl] [Example 23]
Marked response: 1-2

* * *

Hi there, I'd appreciate the recorded MIC against fungi for every entry that follows.
Tested on: Alternaria alternata
assay_details: MIC against fungi, strain J
Type: cell-based
condition_label: malt extract agar
Quick note: give the figure in µg/mL, leave out the unit.

Exam item: Output MIC against fungi of CCCC[P+](CCCC)(CCCC)CCCC.CCC[CH2][Sn-]([Cl])([Cl])([CH2]CCC)[CH2]CCC
Marked response: 10

Exam item: Output MIC against fungi of CCCCCCCCCCCCCC[P+](CCCC)(CCCC)CCCC.CCCCCCCCCCCCCC[P+](CCCC)(CCCC)CCCC.CCC[CH2][Sn-2]([Cl])([Cl])([Cl])([Cl])[Cl]
Marked response: 100

Exam item: Output MIC against fungi of CCCCCCCCCCCCCC[P+](CCCC)(CCCC)CCCC.[CH3][Sn-]([Cl])([Cl])([Cl])[Cl]
Marked response: 50

Exam item: Output MIC against fungi of CCCCCCCCCCCCCC[P+](CCCC)(CCCC)CCCC.[CH3][Sn-]([CH3])([Cl])([Cl])[Cl]
Marked response: 50

Exam item: Output MIC against fungi of CCCCCCCCCCCCCC[P+](CCCC)(CCCC)CCCC.CCCCCCCCCCCCCC[P+](CCCC)(CCCC)CCCC.[CH3][Sn-2]([Cl])([Cl])([Cl])([Cl])[Cl]
Marked response: 50

Exam item: Output MIC against fungi of CCCCCCCCCCCCCC[P+](CCCC)(CCCC)CCCC.CCCCCCCCCCCCCC[P+](CCCC)(CCCC)CCCC.[CH3][Sn-2]([CH3])([Cl])([Cl])([Cl])[Cl]
Marked response: 50
